Data origin: paper PMC3760004

Biological target: ATM (Homo sapiens, UniProt Q13315)
Assay: Kinativ chemical proteomics profiling in cellular lysates
Measured Property: pIC50
Give bare numbers, as −log10 of the molar value.

Record "CCC(=O)N1CCN(c2ccc(-n3c(=O)ccc4cnc5ccc(-c6cnc7ccccc7c6)cc5c43)cc2C(F)(F)F)CC1" / ATM (Homo sapiens, UniProt Q13315), pIC50 recorded as 6.19

----------
Target: ATM (Homo sapiens, UniProt Q13315)
pEC50: −log10 of the molar value.
Measured Property: pEC50

Recorded result, CCC(=O)N1CCN(c2ccc(-n3c(=O)ccc4cnc5ccc(-c6cnc7ccccc7c6)cc5c43)cc2C(F)(F)F)CC1 [Torin1] , pEC50: < 6.00

----------
Target: ATR (Homo sapiens, UniProt Q13535)
Assay: ATR cellular activity, S317 of Chk1 after UV radiation, HCT-116 cells
Measured Property: EC50

Form field, EC50 with ATR (Homo sapiens, UniProt Q13535), item "CCC(=O)N1CCN(c2ccc(-n3c(=O)ccc4cnc5ccc(-c6cnc7ccccc7c6)cc5c43)cc2C(F)(F)F)CC1" : > 1000 nM

----------
Target: ATR (Homo sapiens, UniProt Q13535)
Assay: Kinativ chemical proteomics profiling in cellular lysates
pIC50: −log10 of the molar value.
Measured Property: pIC50

Per the records, this compound ( "CCC(=O)N1CCN(c2ccc(-n3c(=O)ccc4cnc5ccc(-c6cnc7ccccc7c6)cc5c43)cc2C(F)(F)F)CC1" ) has pIC50 equal to > 8.00

----------
Molecular target: PIP5K3 (Homo sapiens)
Sequence (Q9Y2I7 whole entry, species assumed): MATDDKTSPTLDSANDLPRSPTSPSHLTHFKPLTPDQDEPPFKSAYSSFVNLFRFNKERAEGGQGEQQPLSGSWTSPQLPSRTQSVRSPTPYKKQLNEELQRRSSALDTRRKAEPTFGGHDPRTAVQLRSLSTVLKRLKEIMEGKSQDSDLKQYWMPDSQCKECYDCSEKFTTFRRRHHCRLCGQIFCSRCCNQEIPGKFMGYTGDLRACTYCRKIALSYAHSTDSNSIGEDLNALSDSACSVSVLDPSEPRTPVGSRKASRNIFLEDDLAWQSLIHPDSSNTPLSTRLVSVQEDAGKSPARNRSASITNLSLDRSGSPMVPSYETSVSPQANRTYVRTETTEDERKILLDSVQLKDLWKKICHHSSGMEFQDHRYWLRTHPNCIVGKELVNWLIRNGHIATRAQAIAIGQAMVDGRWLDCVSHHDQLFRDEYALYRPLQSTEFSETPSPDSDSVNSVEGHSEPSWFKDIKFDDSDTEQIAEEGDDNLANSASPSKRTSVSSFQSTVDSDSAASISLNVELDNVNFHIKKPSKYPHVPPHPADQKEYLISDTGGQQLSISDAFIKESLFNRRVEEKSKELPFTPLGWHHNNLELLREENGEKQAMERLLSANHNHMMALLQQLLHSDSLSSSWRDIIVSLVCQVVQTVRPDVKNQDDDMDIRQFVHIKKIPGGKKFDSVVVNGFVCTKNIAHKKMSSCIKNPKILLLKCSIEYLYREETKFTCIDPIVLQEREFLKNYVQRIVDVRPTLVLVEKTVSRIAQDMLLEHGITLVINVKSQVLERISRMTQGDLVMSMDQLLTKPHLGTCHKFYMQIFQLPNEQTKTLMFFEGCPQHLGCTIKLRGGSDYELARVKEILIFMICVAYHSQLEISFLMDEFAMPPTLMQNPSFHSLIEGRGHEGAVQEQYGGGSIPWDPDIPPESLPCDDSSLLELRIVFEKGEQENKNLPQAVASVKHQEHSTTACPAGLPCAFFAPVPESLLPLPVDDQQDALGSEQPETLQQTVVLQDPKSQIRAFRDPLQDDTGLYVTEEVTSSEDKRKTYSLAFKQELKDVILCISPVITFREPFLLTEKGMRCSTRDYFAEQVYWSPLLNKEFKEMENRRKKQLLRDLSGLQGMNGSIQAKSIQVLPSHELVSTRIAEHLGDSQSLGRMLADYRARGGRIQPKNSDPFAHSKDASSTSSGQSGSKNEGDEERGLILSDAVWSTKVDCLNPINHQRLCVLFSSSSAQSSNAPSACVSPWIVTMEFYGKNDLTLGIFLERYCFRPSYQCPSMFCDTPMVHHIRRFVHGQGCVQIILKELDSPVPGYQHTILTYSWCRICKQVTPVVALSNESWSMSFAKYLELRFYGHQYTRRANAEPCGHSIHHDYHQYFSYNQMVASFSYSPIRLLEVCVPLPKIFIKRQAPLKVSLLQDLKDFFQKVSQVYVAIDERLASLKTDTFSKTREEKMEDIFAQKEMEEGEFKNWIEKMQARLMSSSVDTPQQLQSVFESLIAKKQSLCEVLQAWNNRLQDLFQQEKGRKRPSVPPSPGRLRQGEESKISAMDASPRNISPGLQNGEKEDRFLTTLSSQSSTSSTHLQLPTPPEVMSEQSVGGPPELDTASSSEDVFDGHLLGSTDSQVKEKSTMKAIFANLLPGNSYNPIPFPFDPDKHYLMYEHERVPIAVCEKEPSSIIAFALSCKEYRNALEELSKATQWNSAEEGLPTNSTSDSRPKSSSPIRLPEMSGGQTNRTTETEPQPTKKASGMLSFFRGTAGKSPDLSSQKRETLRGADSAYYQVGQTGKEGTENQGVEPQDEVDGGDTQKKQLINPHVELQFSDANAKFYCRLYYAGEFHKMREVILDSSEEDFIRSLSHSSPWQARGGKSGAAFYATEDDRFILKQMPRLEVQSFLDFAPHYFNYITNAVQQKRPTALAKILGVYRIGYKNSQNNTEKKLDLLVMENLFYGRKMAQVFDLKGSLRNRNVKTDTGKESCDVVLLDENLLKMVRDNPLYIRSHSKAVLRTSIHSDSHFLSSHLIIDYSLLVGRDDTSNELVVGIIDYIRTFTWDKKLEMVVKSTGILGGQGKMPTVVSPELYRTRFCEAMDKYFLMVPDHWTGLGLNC
Test: Kinativ chemical proteomics profiling in cellular lysates
Measured Property: IC50

Noted for CCC(=O)N1CCN(c2ccc(-n3c(=O)ccc4cnc5ccc(-c6cnc7ccccc7c6)cc5c43)cc2C(F)(F)F)CC1 [Torin1] : its IC50 reads > 10 µM

----------
Target: UniProt Q8TBX8
Sequence (Q8TBX8 whole entry, species assumed): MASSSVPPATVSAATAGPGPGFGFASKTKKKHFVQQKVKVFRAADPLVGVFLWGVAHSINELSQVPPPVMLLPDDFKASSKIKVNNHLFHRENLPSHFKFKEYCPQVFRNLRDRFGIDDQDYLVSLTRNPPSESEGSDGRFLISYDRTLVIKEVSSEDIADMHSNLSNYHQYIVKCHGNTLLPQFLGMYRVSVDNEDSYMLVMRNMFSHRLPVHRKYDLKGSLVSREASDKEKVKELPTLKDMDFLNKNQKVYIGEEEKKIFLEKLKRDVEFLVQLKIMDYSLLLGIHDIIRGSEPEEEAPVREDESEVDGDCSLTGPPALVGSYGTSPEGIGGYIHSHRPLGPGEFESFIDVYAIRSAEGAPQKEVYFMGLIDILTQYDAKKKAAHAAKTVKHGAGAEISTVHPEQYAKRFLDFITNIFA
Assay: Kinativ chemical proteomics profiling in cellular lysates
pIC50: −log10 of the molar value.
Measured Property: pIC50

Entry under test: "CCC(=O)N1CCN(c2ccc(-n3c(=O)ccc4cnc5ccc(-c6cnc7ccccc7c6)cc5c43)cc2C(F)(F)F)CC1" . Its pIC50 was < 5.00

----------
System: PI3K
Details: read-out: apparent EC50 against T308 with S473D mutant of Akt; PC3 AktS473D cell line
Measured Property: EC50 (µM)
Give bare numbers, in µM.

For this molecule ( "Nc1ccc(-c2ccc3ncc4ccc(=O)n(-c5cccc(C(F)(F)F)c5)c4c3c2)cn1" ), measured EC50 is 0.2
